Tested on: A549 lung cancer cells
Experiment: Cell proliferation, A549
Assay type: cell-based, human
Conditions: A549, compared to negative controls
[5FU] = 5-fluorouracil base replacing uracil
reported_property: lung cancer cell proliferation

Please review the following examples before continuing.
• U^FAAU^FACU^FGCCGGGU^FAAU^FGAU^FGGA [modified miR-200c] = inhibited
• U^FGU^FAACAGCAACU^FCCAU^FGU^FGGA (UGUAACAGCAACUCCAUGUGGA; RNA, [5FU] at 1, 3, 13, 17, 19, backbone not given here) [modified miR-194] = inhibited
• U^FGAGGU^FAGU^FAGGU^FU^FGU^FAU^FAGU^FU^F [modified miR-let-7] = inhibited
• GU^FCCAGU^FU^FU^FU^FCCCAGGAAU^FCCCU^F (GUCCAGUUUUCCCAGGAAUCCCU; RNA, [5FU] at 2, 7, 8, 9, 10, 19, 23, backbone not given here) [modified miR-145] = inhibited

Look up lung cancer cell proliferation with A549 lung cancer cells for this substance: CAGU^FGGU^FU^FU^FU^FACCCU^FAU^FGGU^F AG (CAGUGGUUUUACCCUAUGGUAG; RNA, [5FU] at 4, 7, 8, 9, 10, 15, 17, 20, backbone not given here) [modified miR-140 [SEQ ID NO. 16]]
inhibited

Look up lung cancer cell proliferation with A549 lung cancer cells for this substance: U^FAU^FU^FCAGGAAGGU^FGU^FU^FACU^FU^FAA (UAUUCAGGAAGGUGUUACUUAA; RNA, [5FU] at 1, 3, 4, 13, 15, 16, 19, 20, backbone not given here) [modified miR-506, miR-506 in which all (8) U bases are replaced by 5-fluorouracil]
inhibited

FYI, the data here is from patent US12319913B2.
